IC50 listing for selected compounds.
tested on: Plasmodium berghei; assay: Inhibition of Plasmodium berghei ANKA DHODH

Below are worked cases with known answers.
[[record]]
molecule_smiles = "Cc1cc(Nc2c(F)c(F)cc(F)c2F)n2ncnc2n1"
result = "> 100 µM"

[[record]]
molecule_smiles = "Cc1cc(Nc2ccccc2C(F)(F)F)n2ncnc2n1"
result = "> 100 µM"

[[record]]
molecule_smiles = "Cc1cc(Nc2ccc(F)c(F)c2F)n2ncnc2n1"
result = "> 100 µM"

[[record]]
molecule_smiles = "Cc1cc(Nc2c(F)c(F)c(F)c(F)c2F)n2ncnc2n1"
result = "> 100 µM"

[[record]]
molecule_smiles = "Cc1cc(Nc2ccc(F)cc2)n2ncnc2n1"
result = "> 100 µM"


Challenge: Return reported IC50; argument: "Cc1cc(Nc2cccc(F)c2F)n2ncnc2n1"
Response given: > 100 µM

Challenge: Another compound: "Cc1ccc(Nc2cc(C)nc3ncnn23)c(F)c1"
Response given: > 100 µM

###

system: Plasmodium berghei; experiment: Inhibition of Plasmodium berghei ANKA DHODH
pIC50: −log10 of the molar value.
observable: pIC50

[[record]]
molecule_smiles = "Cc1cc(Nc2ccccc2Cl)n2ncnc2n1"
result = "< 4.00"


Challenge: So what pIC50 did "Cc1cc(Nc2cc(F)c(F)cc2F)n2ncnc2n1" get with Plasmodium berghei?
Response given: < 4.00

Challenge: Subsequent entry: "Cc1cc(Nc2c(F)cccc2F)n2ncnc2n1"
Response given: < 4.00
